assayTarget: Receptor-interacting protein kinase 1 (RIPK1) (Homo sapiens)
Construct: with VHL
Sequence (Q13546 whole entry): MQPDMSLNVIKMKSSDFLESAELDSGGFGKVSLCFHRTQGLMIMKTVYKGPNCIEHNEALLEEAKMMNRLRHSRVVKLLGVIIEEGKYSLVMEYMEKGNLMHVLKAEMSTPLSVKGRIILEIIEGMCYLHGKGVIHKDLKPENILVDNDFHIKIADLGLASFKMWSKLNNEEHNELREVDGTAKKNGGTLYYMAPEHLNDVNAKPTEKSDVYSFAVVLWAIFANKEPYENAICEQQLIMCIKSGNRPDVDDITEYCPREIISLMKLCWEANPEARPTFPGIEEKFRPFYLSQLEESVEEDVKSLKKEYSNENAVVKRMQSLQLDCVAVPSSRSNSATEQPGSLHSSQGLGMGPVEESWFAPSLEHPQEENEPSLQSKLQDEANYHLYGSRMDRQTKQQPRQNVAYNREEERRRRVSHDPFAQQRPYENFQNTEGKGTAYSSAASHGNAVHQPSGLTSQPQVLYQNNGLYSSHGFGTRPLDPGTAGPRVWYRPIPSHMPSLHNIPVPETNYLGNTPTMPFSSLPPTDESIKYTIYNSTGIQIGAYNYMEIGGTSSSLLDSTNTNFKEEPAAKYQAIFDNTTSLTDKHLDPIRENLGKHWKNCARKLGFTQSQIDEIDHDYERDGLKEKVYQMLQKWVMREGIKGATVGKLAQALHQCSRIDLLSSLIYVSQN
Sequence (P40337 whole entry partner): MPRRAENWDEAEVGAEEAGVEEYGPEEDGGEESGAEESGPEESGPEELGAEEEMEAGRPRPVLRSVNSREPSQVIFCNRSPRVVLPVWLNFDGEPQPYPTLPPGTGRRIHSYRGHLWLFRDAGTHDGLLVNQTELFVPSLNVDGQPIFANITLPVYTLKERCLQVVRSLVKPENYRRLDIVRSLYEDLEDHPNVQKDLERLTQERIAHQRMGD
method: cell-based
Design: HiBiT luminescence of CRISPR-tagged endogenous RIPK1 (C-terminal HiBiT) after PROTAC treatment; degradation DC50 and Dmax
runConditions: HEK293T-RIPK1-HiBiT cells; read-out: Dmax (HEK293T-RIPK1-HiBiT cell line)
reportedEndpoint: Dmax (%)

Worked set:
givenSmiles	endpointUnit	Dmax
Cc1ncsc1-c1ccc([C@H](C)NC(=O)[C@@H]2C[C@@H](O)CN2C(=O)[C@@H](NC(=O)CCCCCOc2ccc(CNC(=O)Cn3cc(-c4cnc(N)c5c(-c6ccc7c(c6)CCN7C(=O)Cc6ccccc6)csc45)cn3)cc2)C(C)(C)C)cc1	%	87
Cc1ncsc1-c1ccc([C@H](C)NC(=O)[C@@H]2C[C@@H](O)CN2C(=O)[C@@H](NC(=O)CCCCCCOc2ccc(CNC(=O)Cn3cc(-c4cnc(N)c5c(-c6ccc7c(c6)CCN7C(=O)Cc6ccccc6)csc45)cn3)cc2)C(C)(C)C)cc1	%	92

I. Cc1ncsc1-c1ccc([C@H](C)NC(=O)[C@@H]2C[C@@H](O)CN2C(=O)[C@@H](NC(=O)CCCOc2ccc(CNC(=O)Cn3cc(-c4cnc(N)c5c(-c6ccc7c(c6)CCN7C(=O)Cc6ccccc6)csc45)cn3)cc2)C(C)(C)C)cc1
II. Cc1ncsc1-c1ccc([C@H](C)NC(=O)[C@@H]2C[C@@H](O)CN2C(=O)[C@@H](NC(=O)C2CCN(CCCNC(=O)Cn3cc(-c4cnc(N)c5c(-c6ccc7c(c6)CCN7C(=O)Cc6ccccc6)csc45)cn3)CC2)C(C)(C)C)cc1
(Q) For the pair I and II , which entry has the numerically smaller recorded Dmax? Let me know the label of the one you choose.
(A) II
